target: Nuclear receptor subfamily 1 group I member 3 (Homo sapiens) (UniProt Q14994); assay: qHTS assay to identify small molecule agonists of the constitutive androstane receptor (CAR) signaling pathway (AID 1224839); settings: HepG2 hCAR CYP2B6-luciferase, agonist mode, 24 h; series mostly up to 92.4 µM; further: nearly all actives have a fitted effect of over 15% in size;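 on activation: HepG2 cells stably carrying human CAR and a CYP2B6 luciferase reporter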
Sequence (Q14994 whole entry, looked up): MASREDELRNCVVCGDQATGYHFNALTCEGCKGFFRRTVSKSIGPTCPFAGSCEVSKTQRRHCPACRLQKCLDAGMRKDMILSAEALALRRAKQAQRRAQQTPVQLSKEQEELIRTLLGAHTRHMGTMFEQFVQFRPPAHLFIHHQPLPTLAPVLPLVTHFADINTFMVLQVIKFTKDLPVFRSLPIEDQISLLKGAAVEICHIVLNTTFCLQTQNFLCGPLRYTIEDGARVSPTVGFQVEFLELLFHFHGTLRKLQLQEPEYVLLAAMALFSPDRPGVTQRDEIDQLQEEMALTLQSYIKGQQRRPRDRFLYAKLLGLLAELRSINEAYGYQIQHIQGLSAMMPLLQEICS
Results filed as inconclusive are left out. Calls of active or inactive are those of the source. The call rests on the fitted dose curve; in most records, active means well fitted activation curve with a large enough effect in the repeat runs; inconclusive means weak or mixed curves; inactive means no such curve, though single readings can be large or run the other way.
Hi there, use one of these labels in your reply, thanks! active, inactive

q: Answer briefly: the call reported for COc1ccnc2c1CCCCC2S(=O)c1nc2ccccc2[nH]1 (configuration not stated) in this assay.
a: active

q: Answer briefly: the call reported for `CC1(C)CC(O)CC(C)(C)N1[O]` in this assay.
a: inactive

q: Answer briefly: the call reported for `CCCCCCCCOCCCN` in this assay.
a: inactive

q: Answer briefly: the call reported for `[O-][n+]1ccc(Cl)cc1` in this assay.
a: inactive

q: Answer briefly: the call reported for `CC(C)(C)N` in this assay.
a: inactive

q: Answer briefly: the call reported for `COC(=O)c1cc(Cl)ccc1[N+](=O)[O-]` in this assay.
a: inactive

q: Answer briefly: the call reported for `CC(C)CCCCCCCOC(=O)c1ccc(C(=O)OCCCCCCCC(C)C)c(C(=O)OCCCCCCCC(C)C)c1` in this assay.
a: inactive
